# assay_info: reduced mouse 2C T cell binding to pMHC/ICAM-1 vesicles – MLPCN validation set, flow cytometry, LFA-1/ICAM-1 modulator project, pilot screen (AID 2523)
# setup_conditions: 2C mouse CD8+ T cells, at 7 µM, stronger effect = lower value; measured here: CD8+/vesicle+ event percentage
We begin with a simple list: items and their reported double positive events.
Report the figure in % without appending any unit label.

Past entries and their recorded results:
{"molecule": "NC(=O)c1cccnc1", "double positive events / %": 45}
{"molecule": "O=C(Nc1ncc2c(n1)CC(c1ccco1)CC2=O)c1ccco1 (configuration not stated)", "double positive events / %": 55}
{"molecule": "C/C(=N\\NC(=O)C1(C)CC1(Br)Br)c1ccc([N+](=O)[O-])cc1 (configuration not stated)", "double positive events / %": 65.3}
{"molecule": "O=C(Oc1ccccc1)Oc1ccc2c(c1)oc(=O)c1ccccc12", "double positive events / %": 60.1}
{"molecule": "CC[N+]1(CC)CC2=Cc3ccccc3CC2C1 (configuration not stated)", "double positive events / %": 64.8}

From here, focus on the item given below.
Prompt line: Input CC(C)(C)C(=O)Nc1cccc(OC(F)(F)C(F)Cl)c1 (configuration not stated) , output reported double positive events.
Response line: 66.2

----------
# assay_info: rapamycin-like changes in RPL19A-GFP expression – cell-based, S. cerevisiae, multiplex flow cytometry, primary screen (AID 1862);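 also: lower values mimic rapamycin by blocking the RPL19A rise seen in DMSO cells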
# setup_conditions: S. cerevisiae RPL19A-GFP strain, flow cytometry fluorescence, 3 h; at 10 µM; stronger effect = lower value
Records with an inconclusive call do not appear.
value_kind: percent of DMSO control GFP (%)
Report the figure in % without appending any unit label.

Past entries and their recorded results:
{"compound": "COc1ccc(C(=O)Nc2ncc3c(n2)CC(C)CC3=O)cc1 (stereo unspecified)", "percent of DMSO control GFP (%)": 98}
{"compound": "COc1cccc2cc(-c3ccccc3)c(=O)oc12", "percent of DMSO control GFP (%)": 105}
{"compound": "O=C(c1cc2cc(Br)ccc2o1)N1CCCC1", "percent of DMSO control GFP (%)": 101}
{"compound": "CC(=O)c1cccc2c(O)c(C3=Nc4ccccc4C3=O)[nH]c12", "percent of DMSO control GFP (%)": 88}
{"compound": "OCC1CCN(Cc2cn(Cc3ccccc3)nc2-c2cc3ccccc3o2)CC1", "percent of DMSO control GFP (%)": 106}
{"compound": "Nc1ccc(-c2nc3ncccc3o2)c(Cl)c1", "percent of DMSO control GFP (%)": 97.8}
{"compound": "COC(=O)c1[nH]c(=O)c2ccccc2c1O", "percent of DMSO control GFP (%)": 101}
{"compound": "O=c1cc(CN2CCN(c3cccc(Cl)c3)CC2)c2cc(O)c(-c3ccccc3)cc2o1", "percent of DMSO control GFP (%)": 93}
{"compound": "COc1ccc(CCN(C)Cc2nc(Cc3ccc(OC)c(OC)c3)no2)cc1OC", "percent of DMSO control GFP (%)": 100}
{"compound": "Cc1c(O)c(=O)ccn1C", "percent of DMSO control GFP (%)": 90.4}

Prompt line: Input Cc1ccc2c(c1)C(CCN)C(=O)N2Cc1ccccc1 (stereo unspecified) , output reported percent of DMSO control GFP.
Response line: 102

Prompt line: Input CCOc1ccc(C(NC(C)=O)c2ccc(OC)c(OC)c2)cc1 (stereo unspecified) , output reported percent of DMSO control GFP.
Response line: 99.8

Prompt line: Input Cc1nc2c(c3c1[nH]c1ccccc13)C(=O)CC(C)(C)C2 , output reported percent of DMSO control GFP.
Response line: 99.1

Prompt line: Input Cc1ccc(C(=O)NCCNC(=O)c2ccccc2)cc1 , output reported percent of DMSO control GFP.
Response line: 92.8

Prompt line: Input Cc1ccccc1NC(=O)C1(C)Cc2ccccc2C(=O)O1 (stereo unspecified) , output reported percent of DMSO control GFP.
Response line: 100

Prompt line: Input Brc1c(NC2=NCCN2)ccc2nccnc12 , output reported percent of DMSO control GFP.
Response line: 95

Prompt line: Input O=C1C2CC=C(Cl)CC2C(=O)N1CCc1c[nH]c2ccccc12 (stereo unspecified) , output reported percent of DMSO control GFP.
Response line: 90.2

Prompt line: Input O=C(OCCN1CCOCC1)c1cccs1 , output reported percent of DMSO control GFP.
Response line: 104

Prompt line: Input COc1ccc(C(=O)Nc2cccc3cccnc23)cc1OC , output reported percent of DMSO control GFP.
Response line: 102

Prompt line: Input Cc1cc(O)c(C(=O)Cc2csc(C)n2)c(O)c1 , output reported percent of DMSO control GFP.
Response line: 102
